Tested on: STS26T
Assay: drug sensitivity score (DSS, CellTox-Green cytotoxicity, 72 h) (DSS (dimensionless)); higher = more cytotoxic; extreme values may be limits of the assay
Kindly supply the reported drug sensitivity score values for the records listed here.
One number for each entry.

Nc1nc(OCc2cc(Br)cs2)c2[nH]cnc2n1 [Lomeguatrib] (max concentration tested 10000 nM)    0
Nc1cc(C(F)(F)F)c(-c2cc(N3CCOCC3)nc(N3CCOCC3)n2)cn1 [Buparlisib] (max concentration tested 10000 nM)    8.28

Answer for every listed entry: what is its drug sensitivity score? The entries follow.
1. C=CCn1c(=O)c2cnc(Nc3ccc(N4CCN(C)CC4)cc3)nc2n1-c1cccc(C(C)(C)O)n1 [MK1775] (max concentration tested 10000 nM)
2. CC1(C)CCC(c2ccc(Cl)cc2)=C(CN2CCN(c3ccc(C(=O)NS(=O)(=O)c4ccc(N[C@H](CCN5CCOCC5)CSc5ccccc5)c(S(=O)(=O)C(F)(F)F)c4)cc3)CC2)C1 [Navitoclax] (max concentration tested 10000 nM)
3. O=C(O)CCCCC(CCSCc1ccccc1)SCc1ccccc1 (stereo unspecified) [CPI-613] (max concentration tested 10000 nM)
4. CNC(=O)c1ccc(N2C(=S)N(c3ccc(C#N)c(C(F)(F)F)c3)C(=O)C2(C)C)cc1F [Enzalutamide] (max concentration tested 10000 nM)
5. C=CCNC1=C2C[C@@H](C)C[C@H](OC)[C@H](O)[C@@H](C)/C=C(\C)[C@H](OC(N)=O)[C@@H](OC)/C=C\C=C(/C)C(=O)NC(=CC1=O)C2=O [Tanespimycin] (max concentration tested 10000 nM)
6. Cc1sc2c(c1C)C(c1ccc(Cl)cc1)=N[C@H](CC(=O)OC(C)(C)C)c1nnc(C)n1-2 [(-)JQ1] (max concentration tested 10000 nM)
7. C=CC(=O)Nc1cc2c(Nc3ccc(F)c(Cl)c3)ncnc2cc1OCCCN1CCOCC1 [Canertinib] (max concentration tested 10000 nM)
8. C[C@]12O[C@H](C[C@]1(O)CO)n1c3ccccc3c3c4c(c5c6ccccc6n2c5c31)CNC4=O [Lestaurtinib] (max concentration tested 1000 nM)

Response line:
20.3
3.15
0
0
14
0
4.76
0.547

Prompt line: GET /values?readout=drug sensitivity score&item= Cc1ccc(NC(=O)c2ccc(CN3CCN(C)CC3)cc2)cc1Nc1nccc(-c2cccnc2)n1 [Imatinib] (max concentration tested 10000 nM)
Response line: 0

----------
Tested on: HS-PSS
Test: relative IC50 (inflection point of fitted dose-response curve, CellTox-Green cytotoxicity, 72 h; top asymptote may be below 50%); higher = less potent
Kindly supply the reported relative IC50 values for the records listed here.

A selection of reference data follows.
Cc1ccc(C(=O)N(CCCN)[C@@H](c2oc3cc(Cl)ccc3c(=O)c2Cc2ccccc2)C(C)C)cc1    > 100 nM
Cn1c(CCCC(=O)O)nc2cc(N(CCCl)CCCl)ccc21 [Bendamustine]    > 10000 nM
C=CC[C@@H]1/C=C(\C)C[C@H](C)C[C@H](OC)[C@H]2O[C@@](O)(C(=O)C(=O)N3CCCC[C@H]3C(=O)O[C@H](/C(C)=C/[C@@H]3CC[C@@H](O)[C@H](OC)C3)[C@H](C)[C@@H](O)CC1=O)[C@H](C)C[C@@H]2OC [Tacrolimus]    > 10000 nM
C[C@]1(O)C[C@@H](c2nc(-c3ccc4ccc(-c5ccccc5)nc4c3)c3c(N)nccn32)C1 [Linsitinib]    > 10000 nM
CN1CCC(COc2cnc(-c3cccc(Cn4nc(-c5cccc(C#N)c5)ccc4=O)c3)nc2)CC1    > 1000 nM
CN(C)C1CCN(C(=O)c2ccc(NC(=O)Nc3ccc(-c4nc(N5CCOCC5)nc(N5CCOCC5)n4)cc3)cc2)CC1 [Gedatolisib]    > 1000 nM

Answer for every listed entry: what is its relative IC50? The entries follow.
1. CNC(=O)c1ccc2cc([C@@]3(O)CCn4cncc43)ccc2c1 [Orteronel]
2. Cc1nc(-c2cn3c(n2)-c2ccc(-c4cnn(C(C)(C)C(N)=O)c4)cc2OCC3)n(C(C)C)n1 [Taselisib]
3. C[C@@H](C(=O)O)c1ccc(-c2ccccc2)c(F)c1 [Tarenflurbil]
4. Cn1cnc2c(F)c(Nc3ccc(Br)cc3F)c(C(=O)NOCCO)cc21 [Binimetinib]
5. CC[C@@]1(O)C(=O)OCc2c1cc1n(c2=O)Cc2cc3c(CN(C)C)c(O)ccc3nc2-1 [Topotecan]
6. COc1ccc(COc2cc3oc(=O)c4cc(C(C)O)ccc4c3cc2OC)cc1 (stereo unspecified) [Palomid-529]

Response line:
["> 10000 nM", "> 1000 nM", "> 10000 nM", "> 1000 nM", "869 nM", "> 10000 nM"]

Answer for every listed entry: what is its relative IC50? The entries follow.
1. Cn1c(Nc2ccc(C(F)(F)F)cc2)nc2cc(Oc3ccnc(-c4ncc(C(F)(F)F)[nH]4)c3)ccc21 [RAF265]
2. CN(C)c1nc(N(C)C)nc(N(C)C)n1 [Altretamine]
3. CN1CCN(c2nc(C3=C(c4c[nH]c5ccccc45)C(=O)NC3=O)c3ccccc3n2)CC1 [Sotrastaurin]
4. CCOc1ccn(-c2ccc(F)cc2)c(=O)c1C(=O)Nc1ccc(Oc2ccnc(N)c2Cl)c(F)c1

Response line:
> 1000 nM
> 10000 nM
> 10000 nM
> 2500 nM

Every entry's value here was drawn from the supplement of paper PMC5579334.
